B1: Connector enhancer of kinase suppressor of ras 2, residues 9 to 71; numbered along this chain, Q8WXI2 (parent)
chain: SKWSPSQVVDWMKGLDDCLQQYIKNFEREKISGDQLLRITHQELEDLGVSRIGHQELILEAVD

- Variants of: B1
- Procedure text: abundance fitness (aPCA) (normalised: wild type 0, dead -1); higher = more abundant; growth selection in yeast, the domain comes from the species named
- Run conditions: Homo sapiens
Outcome measure: abundance fitness

>>> endpoint_result("E45V")
-0.118
>>> endpoint_result("Q20R")
-0.214
>>> endpoint_result("F26T")
-0.774
>>> endpoint_result("I39S")
-0.537
>>> endpoint_result("H54Y")
-0.863
>>> endpoint_result("Y22Q")
-0.636
>>> endpoint_result("D16H")
-0.358
>>> endpoint_result("L57Q")
-0.213
>>> endpoint_result("L59D")
-0.594
>>> endpoint_result("I58R")
-0.811
>>> endpoint_result("E56W")
-0.362

Where do these numbers come from? They come from the Human Domainome abundance scans (Beltran et al. 2025).
